System: intestinal microbiota (fecal samples) of human subjects
Test: in-vitro fermentations of fecal samples (intestinal microbiota-representing microarray) with phytonutrient precursor compounds; also: key: conversion (+); partial conversion (±); no conversion (−)
Format: in vitro ADME
Conditions: fecal sample of Subject 7 (S7), in-vitro fermentation
QUANTITY_KIND: Phytonutrient Producer Status: conversion of the phytonutrient precursor compound, S7

>  <COMPOUND>
Oc1cc(O)c2c(c1)O[C@H](c1cc(O)c(O)c(O)c1)[C@H](O)C2 [Epigallocatechol]

>  <VAL>
+

$$$$
>  <COMPOUND>
COc1ccc([C@@H]2CC(=O)c3c(O)cc(O[C@@H]4O[C@H](CO[C@@H]5O[C@@H](C)[C@H](O)[C@@H](O)[C@H]5O)[C@@H](O)[C@H](O)[C@H]4O)cc3O2)cc1O

>  <VAL>
+

$$$$
>  <COMPOUND>
COc1cc(C[C@@H](CO[C@@H]2O[C@H](CO)[C@@H](O)[C@H](O)[C@H]2O)[C@H](CO[C@@H]2O[C@H](CO)[C@@H](O)[C@H](O)[C@H]2O)Cc2ccc(O)c(OC)c2)ccc1O [Secoisolariciresinol diglucoside]

>  <VAL>
±

$$$$

====

Test system: intestinal microbiota (fecal samples) of human subjects
Experiment: in-vitro fermentations of fecal samples (intestinal microbiota-representing microarray) with phytonutrient precursor compounds; also: key: conversion (+); partial conversion (±); no conversion (−)
Format: in vitro ADME
Conditions: fecal sample of Subject 11 (S11), in-vitro fermentation
QUANTITY_KIND: Phytonutrient Producer Status: conversion of the phytonutrient precursor compound, S11

>  <COMPOUND>
O=c1c(O)c(-c2ccc(O)c(O)c2)oc2cc(O)cc(O)c12

>  <VAL>
−

$$$$
>  <COMPOUND>
OC[C@H]1O[C@@H](Oc2cc3c(O)cc(O)cc3[o+]c2-c2ccc(O)c(O)c2)[C@H](O)[C@@H](O)[C@@H]1O [Cyanidin-3-glucoside]

>  <VAL>
+

$$$$
>  <COMPOUND>
COc1ccc([C@@H]2CC(=O)c3c(O)cc(O[C@@H]4O[C@H](CO[C@@H]5O[C@@H](C)[C@H](O)[C@@H](O)[C@H]5O)[C@@H](O)[C@H](O)[C@H]4O)cc3O2)cc1O

>  <VAL>
+

$$$$
